# subject.of.test: recombinant human plasminogen activator inhibitor-1 (PAI-1) (Homo sapiens, UniProt P05121)
# Construct: purchased Molecular Innovations, Royal Oak, Mich
# Sequence (P05121 24-402): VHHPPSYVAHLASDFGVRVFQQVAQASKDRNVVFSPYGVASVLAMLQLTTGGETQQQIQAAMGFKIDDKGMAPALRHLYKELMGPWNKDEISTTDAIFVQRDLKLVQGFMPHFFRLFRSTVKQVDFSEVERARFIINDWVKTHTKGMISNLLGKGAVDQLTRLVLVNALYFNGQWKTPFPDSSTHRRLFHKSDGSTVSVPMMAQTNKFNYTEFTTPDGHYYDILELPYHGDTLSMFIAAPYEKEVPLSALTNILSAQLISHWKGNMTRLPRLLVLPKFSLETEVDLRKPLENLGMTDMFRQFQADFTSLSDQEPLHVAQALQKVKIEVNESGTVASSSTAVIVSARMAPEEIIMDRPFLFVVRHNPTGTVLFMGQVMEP
# protocol.details: Primary Screen for the PAI-1 Inhibition
# Type: biochemical
# experimental.setup: 100 μM test compound; read-out: % Inhib. 100 μM
Classify as follows. Reported inhibition at 100 µM greater than or equal to 50%: true (1). Reported inhibition at 100 µM below: false (0).

Example results:
# compound, category.label
rows = [
    ("O=C(NCc1ccc2c(Br)c(OC(Cc3ccccc3)C(=O)O)ccc2c1)c1ccc(Oc2cc(Cl)cc(Cl)c2)o1 (stereo not shown) [Example 53]", "true (1)"),
    ("CCCc1c(C(=O)NCc2ccc3cc(OCC(=O)O)ccc3c2)cnn1-c1ccc(Cl)cc1 [Example 13]", "true (1)"),
    ("CC(C)(C)c1cc(C(=O)NCc2ccc3cc(OCC(=O)O)ccc3c2)cc(C(C)(C)C)c1 [Example 86]", "false (0)"),
    ("CCCCc1oc2ccccc2c1C(=O)NCc1ccc2c(-c3ccc(Cl)cc3)c(OCc3nnn[nH]3)ccc2c1 [Example 26]", "true (1)"),
    ("O=C(O)COc1ccc2cc(NC(=O)c3ccc(-c4cccc(C(F)(F)F)c4)o3)ccc2c1 [Example 74]", "true (1)"),
]

Task: Is inhibition at 100 µM for CCCCc1oc2ccccc2c1C(=O)Nc1ccc2c(Br)c(OCc3nn[nH]n3)ccc2c1 [Example 5] at or above 50%?
Result: false (0)

Task: Please tell me: is the compound O=C(O)COc1ccc2cc(CNC(=O)c3ccc(-c4cccc(C(F)(F)F)c4)o3)ccc2c1 [Example 85] at or over 50% in terms of inhibition at 100 µM?
Result: false (0)
